Each recorded value in this set is attributed to the supplement of paper PMC9844399.

Tested on: HeLa;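 note: High-content confocal imaging of branched-DNA amplified FISH in 384-well plates, Hoechst-defined nuclei, score is well value minus plate DMSO median over DMSO robust SD, four wells per compound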
Test: MALAT1 nuclear FISH intensity, robust Z-score vs DMSO; higher = more nuclear MALAT1 lncRNA, active = -3 or less
Conditions: 10 µM; 6 h
Structures can show the parent of a compound that is named as a salt.
Assign met to entries whose MALAT1 nuclear FISH intensity meets or exceeds -0.3; assign not met to the rest.

Identify whether the reported MALAT1 nuclear FISH intensity of the following compound is -0.3 or greater: O=c1[nH]cnc2c1ncn2[C@H]1CC[C@@H](CO)O1
not met

Identify whether the reported MALAT1 nuclear FISH intensity of the following compound is -0.3 or greater: Cc1ccc2c(c1)C(=O)C1(O)CCN(c3ccccc3)C1=N2 (stereo unspecified)
not met

Identify whether the reported MALAT1 nuclear FISH intensity of the following compound is -0.3 or greater: Cc1c(C)c2c(c(C)c1O)CCC(C)(COc1ccc(CC3SC(=O)NC3=O)cc1)O2 (stereo unspecified)
met

Identify whether the reported MALAT1 nuclear FISH intensity of the following compound is -0.3 or greater: COC1=CC(=O)C[C@@H](C)[C@]12Oc1c(Cl)c(OC)cc(OC)c1C2=O [(+)-Griseofulvin]
not met

Identify whether the reported MALAT1 nuclear FISH intensity of the following compound is -0.3 or greater: CCC(NC(=O)C(CC(C)C)NC(=O)OCc1ccccc1)C(=O)C(=O)NCCCN1CCOCC1 (stereo unspecified)
met

Identify whether the reported MALAT1 nuclear FISH intensity of the following compound is -0.3 or greater: CC[C@H](C)C(=O)O[C@H]1C[C@@H](C)C=C2C=C[C@H](C)[C@H](CC[C@@H](O)C[C@@H](O)CC(=O)O)[C@H]21 [Lovastatin Sodium Salt]
not met

Identify whether the reported MALAT1 nuclear FISH intensity of the following compound is -0.3 or greater: CNC(=O)c1cnn(-c2nc(N)c3ncn([C@@H]4O[C@H](CO)[C@@H](O)[C@H]4O)c3n2)c1
not met

Identify whether the reported MALAT1 nuclear FISH intensity of the following compound is -0.3 or greater: CCCCCCCCCCCC=CC(C)(C)C=CCCCC(=O)O
met

Identify whether the reported MALAT1 nuclear FISH intensity of the following compound is -0.3 or greater: COc1ccc(OC)c(C(O)CNC(=O)CN)c1 (stereo unspecified)
not met

Identify whether the reported MALAT1 nuclear FISH intensity of the following compound is -0.3 or greater: CC1(C)O[C@@H]2C[C@H]3[C@@H]4C[C@H](F)C5=CC(=O)C=C[C@]5(C)[C@@]4(F)[C@@H](O)C[C@]3(C)[C@]2(C(=O)CO)O1 [Fluocinolone Acetonide]
met

Identify whether the reported MALAT1 nuclear FISH intensity of the following compound is -0.3 or greater: CC(N/C(=N\C#N)Nc1ccncc1)C(C)(C)C (stereo unspecified)
met

Identify whether the reported MALAT1 nuclear FISH intensity of the following compound is -0.3 or greater: CC[C@@H]([C@H](C)O)n1ncn(-c2ccc(N3CCN(c4ccc(OC[C@@H]5CO[C@@](Cn6cncn6)(c6ccc(F)cc6F)C5)cc4)CC3)cc2)c1=O
not met

Identify whether the reported MALAT1 nuclear FISH intensity of the following compound is -0.3 or greater: Nc1nc(Cl)nc2c1ncn2[C@H]1C[C@H](O)[C@@H](CO)O1
met

Identify whether the reported MALAT1 nuclear FISH intensity of the following compound is -0.3 or greater: CCCCC/C=C\C/C=C\C/C=C\CC1OC1CCCC(=O)O (stereo unspecified)
not met

Identify whether the reported MALAT1 nuclear FISH intensity of the following compound is -0.3 or greater: CC(C)NCC(O)COc1ccc(CC(N)=O)cc1 (stereo unspecified)
met

Identify whether the reported MALAT1 nuclear FISH intensity of the following compound is -0.3 or greater: CC(COc1ccccc1)N(CCCl)Cc1ccccc1 (stereo unspecified) [Phenoxybenzamine]
met
